# system_under_test: mouse Mdr1a (Mus musculus, UniProt P21447)
# Sequence (P21447 whole entry): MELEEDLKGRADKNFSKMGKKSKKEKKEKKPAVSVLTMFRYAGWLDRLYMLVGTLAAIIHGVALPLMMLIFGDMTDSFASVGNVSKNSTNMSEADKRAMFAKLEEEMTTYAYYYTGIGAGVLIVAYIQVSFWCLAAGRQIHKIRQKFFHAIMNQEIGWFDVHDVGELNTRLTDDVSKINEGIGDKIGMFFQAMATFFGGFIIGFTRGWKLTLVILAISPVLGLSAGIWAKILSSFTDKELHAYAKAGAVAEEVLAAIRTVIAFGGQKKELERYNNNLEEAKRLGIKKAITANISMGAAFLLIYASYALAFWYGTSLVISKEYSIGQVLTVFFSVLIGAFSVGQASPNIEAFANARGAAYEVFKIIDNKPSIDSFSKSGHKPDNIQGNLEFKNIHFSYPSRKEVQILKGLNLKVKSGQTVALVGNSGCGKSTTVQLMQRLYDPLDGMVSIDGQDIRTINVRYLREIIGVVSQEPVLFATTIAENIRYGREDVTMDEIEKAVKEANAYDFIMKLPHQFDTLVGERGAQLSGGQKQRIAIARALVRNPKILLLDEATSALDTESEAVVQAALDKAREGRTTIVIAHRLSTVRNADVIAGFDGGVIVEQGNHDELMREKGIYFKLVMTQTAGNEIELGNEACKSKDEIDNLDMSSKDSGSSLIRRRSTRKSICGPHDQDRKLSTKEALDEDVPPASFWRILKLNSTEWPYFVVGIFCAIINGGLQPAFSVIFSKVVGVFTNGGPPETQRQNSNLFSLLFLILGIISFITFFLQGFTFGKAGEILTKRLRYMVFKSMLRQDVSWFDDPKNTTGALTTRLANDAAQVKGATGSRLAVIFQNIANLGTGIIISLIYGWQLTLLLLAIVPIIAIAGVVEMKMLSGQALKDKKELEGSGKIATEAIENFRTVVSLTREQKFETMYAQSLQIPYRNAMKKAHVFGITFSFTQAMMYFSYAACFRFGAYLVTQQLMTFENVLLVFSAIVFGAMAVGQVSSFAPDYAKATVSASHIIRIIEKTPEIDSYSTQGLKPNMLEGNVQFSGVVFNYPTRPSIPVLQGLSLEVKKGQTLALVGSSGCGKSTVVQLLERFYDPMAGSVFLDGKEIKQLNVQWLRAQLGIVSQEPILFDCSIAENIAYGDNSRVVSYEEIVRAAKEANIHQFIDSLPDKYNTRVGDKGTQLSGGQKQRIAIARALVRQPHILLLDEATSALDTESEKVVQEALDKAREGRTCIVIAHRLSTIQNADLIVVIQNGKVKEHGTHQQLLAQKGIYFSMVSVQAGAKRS
# measurement_protocol: Inhibition of 3H-digoxin or 3H-quinidine bidirectional transport in mMDR1 cells
# Assay type: cell-based
# Design: mouse Mdr1a (NM_011076.3); expressed in transfected cells; host or cells: Abcb1KO-MDCKII (canine kidney, endogenous Abcb1 knocked out), transduced, single-cell clone
# assay_context: Inhibition of quinidine transport IC50±SD, mMDR1, probe 3H-quinidine 1 µM, 60 min; IC50 from ER

compound	units	IC50
COc1cc2c(cc1OC)CN(CCc1ccc(NC(=O)c3cccc4c(=O)c5cccc(OC)c5[nH]c34)cc1)CC2	nM	200
CCOC(=O)C1=C(C)NC(C)=C(C(=O)OC)C1c1cccc([N+](=O)[O-])c1 (stereo not drawn)	nM	15700
O[C@@H](COc1cccc2ncccc12)CN1CCN([C@@H]2c3ccccc3[C@@H]3[C@H](c4ccccc42)C3(F)F)CC1	nM	490

----------
# system_under_test: mouse Mdr1a (Mus musculus, UniProt P21447)
# measurement_protocol: Bidirectional transport assay, efflux ratio in Abcb1KO-MDCKII mMDR1 cells
# assay_context: mouse, pH 7.4
# Experimental: Eluent A consisted of 0.1% formic acid in water, eluent B consisted of 0.1% formic acid in acetonitrile. Then, 10 µL samples were injected into the HPLC-MS/MS system. Mass spectrometric detection was performed in SRM mode, and ion transitions for each analyte were optimized during method development. Samples were analyzed in pools, with each pool containing three to four analytes.
efflux ratio at 120 min, 1 µM for assorted compounds

compound	efflux ratio at 120 min, 1 µM
COc1ccccc1OCCNCC(O)COc1cccc2[nH]c3ccccc3c12 (stereo not drawn)	1.94
O=C(CCCN1CCC(O)(c2ccc(Cl)cc2)CC1)c1ccc(F)cc1	0.72
CC(C)(C)c1ccc(C(O)CCCN2CCC(C(O)(c3ccccc3)c3ccccc3)CC2)cc1 (stereo not drawn)	2.64
CC(C)NCC(O)COc1cccc2ccccc12 (stereo not drawn)	0.92
O=C1c2c(O)ccc(O)c2C(=O)c2c(NCCNCCO)ccc(NCCNCCO)c21	28.6
CN(C)CCOC(C)(c1ccccc1)c1ccccn1 (stereo not drawn)	1.25
OC[C@@H](O)[C@@H](O)[C@H](O)[C@H](O)CO	1.04
CNC(=C[N+](=O)[O-])NCCSCc1ccc(CN(C)C)o1	2.09
NC(=O)N1c2ccccc2C=Cc2ccccc21 [Carbamazepine]	0.79

----------
# system_under_test: rat Mdr1a (Rattus norvegicus)
# Sequence (Q6PSM0 1-1272): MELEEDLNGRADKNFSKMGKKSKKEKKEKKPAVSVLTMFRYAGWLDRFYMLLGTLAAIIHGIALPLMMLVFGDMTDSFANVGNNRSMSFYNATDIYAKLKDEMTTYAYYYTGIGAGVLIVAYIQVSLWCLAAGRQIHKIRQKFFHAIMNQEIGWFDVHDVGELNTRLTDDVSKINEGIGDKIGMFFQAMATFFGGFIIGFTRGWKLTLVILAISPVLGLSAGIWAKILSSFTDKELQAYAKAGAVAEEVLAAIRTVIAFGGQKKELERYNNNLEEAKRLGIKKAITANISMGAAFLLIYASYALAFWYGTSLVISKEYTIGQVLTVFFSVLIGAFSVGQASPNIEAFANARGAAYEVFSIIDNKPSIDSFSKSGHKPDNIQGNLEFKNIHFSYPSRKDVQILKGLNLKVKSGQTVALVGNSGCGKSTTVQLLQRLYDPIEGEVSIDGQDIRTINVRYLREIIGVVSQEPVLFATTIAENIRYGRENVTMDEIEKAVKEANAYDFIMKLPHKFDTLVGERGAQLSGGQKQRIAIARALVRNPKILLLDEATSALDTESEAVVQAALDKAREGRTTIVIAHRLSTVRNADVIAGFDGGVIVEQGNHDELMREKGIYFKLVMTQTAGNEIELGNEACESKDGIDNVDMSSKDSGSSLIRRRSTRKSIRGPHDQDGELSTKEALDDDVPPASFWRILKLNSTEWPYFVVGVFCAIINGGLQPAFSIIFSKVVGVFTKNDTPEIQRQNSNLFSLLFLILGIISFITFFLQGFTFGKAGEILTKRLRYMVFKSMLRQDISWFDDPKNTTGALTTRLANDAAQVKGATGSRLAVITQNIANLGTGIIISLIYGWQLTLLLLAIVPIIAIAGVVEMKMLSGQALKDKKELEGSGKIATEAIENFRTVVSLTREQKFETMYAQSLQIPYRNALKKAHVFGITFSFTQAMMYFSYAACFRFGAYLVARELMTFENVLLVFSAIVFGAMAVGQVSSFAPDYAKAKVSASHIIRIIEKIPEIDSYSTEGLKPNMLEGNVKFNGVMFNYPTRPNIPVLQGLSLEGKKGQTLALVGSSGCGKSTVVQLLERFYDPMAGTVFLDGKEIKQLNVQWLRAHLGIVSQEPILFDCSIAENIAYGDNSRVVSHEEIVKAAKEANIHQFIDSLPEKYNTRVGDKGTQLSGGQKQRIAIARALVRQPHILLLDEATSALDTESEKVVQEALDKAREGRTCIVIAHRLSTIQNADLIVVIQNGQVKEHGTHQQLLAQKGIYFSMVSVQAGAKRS
# measurement_protocol: Bidirectional transport assay, efflux ratio in Abcb1KO-MDCKII rMDR1 cells
# assay_context: rat, pH 7.4
efflux ratio at 120 min, 1 µM for assorted compounds

compound	system_under_test	efflux ratio at 120 min, 1 µM
CC(=O)O[C@H]1C(=O)[C@@]2(C)[C@H]([C@H](OC(=O)c3ccccc3)[C@]3(O)C[C@H](OC(=O)[C@H](O)[C@@H](NC(=O)c4ccccc4)c4ccccc4)C(C)=C1C3(C)C)[C@]1(OC(C)=O)CO[C@@H]1C[C@@H]2O	rat Mdr1a (Rattus norvegicus)	82.9
COc1ccc2c(c1)[C@]13CCCC[C@@H]1[C@H](C2)N(C)CC3	rat Mdr1a (Rattus norvegicus)	0.94
COCCc1ccc(OCC(O)CNC(C)C)cc1 (centres unmarked)	rat Mdr1a (Rattus norvegicus)	0.97
Clc1cccc(Cl)c1N=C1NCCN1	rat Mdr1a (Rattus norvegicus)	0.98
NC(=O)N1c2ccccc2C=Cc2ccccc21 [Carbamazepine]	rat Mdr1a (Rattus norvegicus)	0.86
O=C(O)CCCN1CCC(O[C@@H](c2ccc(Cl)cc2)c2ccccn2)CC1	rat Mdr1a (Rattus norvegicus)	8.86
O=C1CC[C@@]2(O)[C@H]3Cc4ccc(O)c5c4[C@@]2(CCN3CC2CC2)[C@H]1O5 [Naltrexone]	rat Mdr1a (Rattus norvegicus)	1.55
CN[C@H]1CC[C@@H](c2ccc(Cl)c(Cl)c2)c2ccccc21	rat Mdr1a (Rattus norvegicus)	2.74
COc1ccc2c(c1)c(CC(=O)O)c(C)n2C(=O)c1ccc(Cl)cc1	rat Mdr1a (Rattus norvegicus)	0.4
N=C(N)NC(=O)Cc1c(Cl)cccc1Cl	rat Mdr1a (Rattus norvegicus)	0.97
CC(=O)CC(c1ccccc1)c1c(O)c2ccccc2oc1=O (centres unmarked)	rat Mdr1a (Rattus norvegicus)	0.6

----------
# system_under_test: human BCRP (Homo sapiens)
# Sequence (Q9UNQ0 whole entry): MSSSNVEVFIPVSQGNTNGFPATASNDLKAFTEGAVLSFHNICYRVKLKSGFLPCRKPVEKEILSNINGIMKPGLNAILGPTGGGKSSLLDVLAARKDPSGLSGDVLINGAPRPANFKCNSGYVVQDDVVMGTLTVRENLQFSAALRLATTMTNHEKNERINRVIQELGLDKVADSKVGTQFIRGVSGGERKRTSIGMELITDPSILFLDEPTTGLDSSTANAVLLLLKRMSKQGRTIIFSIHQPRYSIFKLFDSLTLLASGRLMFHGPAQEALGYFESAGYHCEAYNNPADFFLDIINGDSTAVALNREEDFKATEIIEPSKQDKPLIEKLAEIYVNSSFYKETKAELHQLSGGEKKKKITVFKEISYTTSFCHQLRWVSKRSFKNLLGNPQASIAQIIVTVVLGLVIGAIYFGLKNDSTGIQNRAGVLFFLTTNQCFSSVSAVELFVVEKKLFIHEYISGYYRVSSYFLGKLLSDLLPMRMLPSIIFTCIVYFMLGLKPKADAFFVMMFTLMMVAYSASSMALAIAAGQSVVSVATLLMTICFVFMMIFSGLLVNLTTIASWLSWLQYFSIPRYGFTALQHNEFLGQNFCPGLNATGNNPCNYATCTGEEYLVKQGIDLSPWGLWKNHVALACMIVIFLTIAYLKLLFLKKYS
# measurement_protocol: Bidirectional transport assay, efflux ratio in MDCKII-BCRP cells
# assay_context: human, pH 7.4

compound	efflux ratio at 120 min, 1 µM
CCCc1nc2c(C)cc(-c3nc4ccccc4n3C)cc2n1Cc1ccc(-c2ccccc2C(=O)O)cc1 [Telmisartan]	12.2
Cc1ccc(NC(=O)c2ccc(CN3CCN(C)CC3)cc2)cc1Nc1nccc(-c2cccnc2)n1 [Imatinib]	49.2
COc1ccc2c(c1)[C@]13CCCC[C@@H]1[C@H](C2)N(C)CC3 [Dextromethorphan]	0.66
Cc1cccc(C)c1OCC(C)N (stereo not shown) [Mexiletine]	0.71
CCN(CC)CCNC(=O)c1cc(Cl)c(N)cc1OC [Metoclopramide]	2.42
NC(=O)N1c2ccccc2C=Cc2ccccc21 [Carbamazepine]	0.86
CC[C@H]1OC(=O)[C@H](C)[C@@H](O[C@H]2C[C@@](C)(OC)[C@@H](O)[C@H](C)O2)[C@H](C)[C@@H](O[C@@H]2O[C@H](C)C[C@H](N(C)C)[C@H]2O)[C@](C)(OC)C[C@@H](C)C(=O)[C@H](C)[C@@H](O)[C@]1(C)O [Clarithromycin]	11.1

----------
efflux ratio at 120 min, 1 µM for assorted compounds
# measurement_protocol: Bidirectional transport assay, efflux ratio in Abcb1KO-MDCKII-Mock control cells
# assay_context: dog, MDCK, pH 7.4
# Method: Eluent A consisted of 0.1% formic acid in water, eluent B consisted of 0.1% formic acid in acetonitrile. Then, 10 µL samples were injected into the HPLC-MS/MS system. Mass spectrometric detection was performed in SRM mode, and ion transitions for each analyte were optimized during method development. Samples were analyzed in pools, with each pool containing three to four analytes.
measure: efflux ratio at 120 min, 1 µM

compound	measure	recorded_result
CC(=O)O[C@H]1C(=O)[C@@]2(C)[C@H]([C@H](OC(=O)c3ccccc3)[C@]3(O)C[C@H](OC(=O)[C@H](O)[C@@H](NC(=O)c4ccccc4)c4ccccc4)C(C)=C1C3(C)C)[C@]1(OC(C)=O)CO[C@@H]1C[C@@H]2O	efflux ratio at 120 min, 1 µM	2.52
CC/C(=C(\c1ccccc1)c1ccc(OCCN(C)C)cc1)c1ccccc1	efflux ratio at 120 min, 1 µM	2.25
CC(C)NCC(O)COc1cccc2ccccc12 (centres unmarked)	efflux ratio at 120 min, 1 µM	0.54
CN(C)CCc1c[nH]c2ccc(C[C@H]3COC(=O)N3)cc12	efflux ratio at 120 min, 1 µM	0.97
COc1ccccc1OCCNCC(O)COc1cccc2[nH]c3ccccc3c12 (centres unmarked)	efflux ratio at 120 min, 1 µM	0.62
COc1cc(Cc2cnc(N)nc2N)cc(OC)c1OC	efflux ratio at 120 min, 1 µM	0.84
CN(C)CCC=C1c2ccccc2COc2ccccc21 [Doxepin]	efflux ratio at 120 min, 1 µM	0.68
CN/C(=N/CCSCc1nc[nH]c1C)NC#N	efflux ratio at 120 min, 1 µM	1.42
COc1cc2nc(N3CCN(C(=O)c4ccco4)CC3)nc(N)c2cc1OC	efflux ratio at 120 min, 1 µM	0.72
NC(=O)N1c2ccccc2C=Cc2ccccc21 [Carbamazepine]	efflux ratio at 120 min, 1 µM	0.61
CN(C)C(=O)C(CCN1CCC(O)(c2ccc(Cl)cc2)CC1)(c1ccccc1)c1ccccc1 [Loperamide]	efflux ratio at 120 min, 1 µM	0.49
CC[C@H]1OC(=O)[C@H](C)[C@@H](O[C@H]2C[C@@](C)(OC)[C@@H](O)[C@H](C)O2)[C@H](C)[C@@H](O[C@@H]2O[C@H](C)C[C@H](N(C)C)[C@H]2O)[C@](C)(OC)C[C@@H](C)C(=O)[C@H](C)[C@@H](O)[C@]1(C)O	efflux ratio at 120 min, 1 µM	0.53
Clc1cccc(Cl)c1N=C1NCCN1	efflux ratio at 120 min, 1 µM	0.93
C=CCN1CC[C@]23c4c5ccc(O)c4O[C@H]2C(=O)CC[C@@]3(O)[C@H]1C5	efflux ratio at 120 min, 1 µM	0.33
O=c1n(CCCN2CCN(c3cccc(Cl)c3)CC2)nc2ccccn12	efflux ratio at 120 min, 1 µM	2.66
CN(C)CCOC(C)(c1ccccc1)c1ccccn1 (centres unmarked)	efflux ratio at 120 min, 1 µM	0.83
O=C1CC[C@@]2(O)[C@H]3Cc4ccc(O)c5c4[C@@]2(CCN3CC2CC2)[C@H]1O5 [Naltrexone]	efflux ratio at 120 min, 1 µM	0.88

----------
# system_under_test: mouse Mdr1a (Mus musculus)
# measurement_protocol: Bidirectional transport assay, efflux ratio in Abcb1KO-MDCKII mMDR1 cells
# assay_context: mouse, pH 7.4
efflux ratio at 120 min, 1 µM for assorted molecules

molecule	efflux ratio at 120 min, 1 µM
CCCc1nc2c(C)cc(-c3nc4ccccc4n3C)cc2n1Cc1ccc(-c2ccccc2C(=O)O)cc1	2.2
CCN(CC)CCNC(=O)c1cc(Cl)c(N)cc1OC [Metoclopramide]	2.55
CN(C)C(=O)C(CCN1CCC(O)(c2ccc(Cl)cc2)CC1)(c1ccccc1)c1ccccc1 [Loperamide]	16
CC(=O)CC(c1ccccc1)c1c(O)c2ccccc2oc1=O (stereo not shown)	0.58
Cc1cc(=O)n(-c2ccccc2)n1C [Antipyrine]	0.66
Cc1ccc(-c2ncc(Cl)cc2-c2ccc(S(C)(=O)=O)cc2)cn1	1.72
Cc1nccn1CC1CCc2c(c3ccccc3n2C)C1=O (stereo not shown)	5.33
Nc1c2c(nc3ccccc13)CCCC2	0.99
CN(C)CCC=C1c2ccccc2COc2ccccc21 [Doxepin]	0.91
CN(C)CCCN1c2ccccc2CCc2ccccc21	0.9
CC(C)N(CCC(C(N)=O)(c1ccccc1)c1ccccn1)C(C)C (stereo not shown) [Disopyramide]	11.2
N=C(N)NC(=O)Cc1c(Cl)cccc1Cl	1.62
Cn1c(=O)c2c(ncn2C)n(C)c1=O	0.77
COc1cc([C@@H]2c3cc4c(cc3[C@@H](O[C@@H]3O[C@@H]5CO[C@@H](C)O[C@H]5[C@H](O)[C@H]3O)[C@H]3COC(=O)[C@H]23)OCO4)cc(OC)c1O [Etoposide]	6.87
COc1cc(Cc2cnc(N)nc2N)cc(OC)c1OC	9.04
COc1ccc2c(c1)[C@]13CCCC[C@@H]1[C@H](C2)N(C)CC3	0.78
